- Test system: MRC5
- PROTOCOL: Cytotoxicity against human MRC5 cells at 25 uM after 48 hrs by WST8 assay
- Assay type: cell-based
- SETUP CONDITIONS: mrc5, 48 h

{"COMPOUND": "C[C@@H]1O[C@H](O[C@@H]2[C@@H](O)[C@H](O[C@H]3CC[C@]4(C)[C@H]5CC=C6[C@@H]7CC(C)(C)CC[C@]7(C(=O)O[C@@H]7O[C@H](CO)[C@@H](O)[C@H](O)[C@H]7O)CC[C@@]6(C)[C@]5(C)CC[C@H]4C3(C)C)O[C@H](C(=O)O)[C@H]2O)[C@H](O)[C@H](O)[C@H]1O", "growth inhibition (GI)": "Not Active"}
{"COMPOUND": "C/C=C(\\C)C(=O)O[C@H]1[C@H](OC(C)=O)[C@]2(CO)[C@H](O)[C@H](O)[C@]3(C)C(=CC[C@@H]4[C@@]5(C)CC[C@H](O[C@@H]6O[C@H](C(=O)O)[C@@H](O)[C@H](O[C@@H]7O[C@@H](CO)[C@H](O)[C@H]7O)[C@H]6O[C@@H]6O[C@H](CO)[C@H](O)[C@H](O)[C@H]6O)C(C)(C)[C@@H]5CC[C@]43C)[C@@H]2CC1(C)C [AESCULIOSIDE IIF]", "growth inhibition (GI)": "Not Active"}
{"COMPOUND": "C/C=C(/C)C(=O)O[C@H]1[C@H](O)[C@]2(CO)[C@H](O)[C@H](O)[C@]3(C)C(=CC[C@@H]4[C@@]5(C)CC[C@H](O[C@@H]6O[C@H](C(=O)O)[C@@H](O)[C@H](O[C@@H]7O[C@@H](CO)[C@H](O)[C@H]7O)[C@H]6O[C@@H]6O[C@H](CO)[C@H](O)[C@H](O)[C@H]6O)C(C)(C)[C@@H]5CC[C@]43C)[C@@H]2CC1(C)C [AESCULIOSIDE IIA]", "growth inhibition (GI)": "Not Active"}

----------
- System: HL-60
- PROTOCOL: Cytotoxicity against human HL60 cells after 48 hrs by WST8 assay
- Format: functional
- SETUP CONDITIONS: HL-60, 48 h

{"MOLECULE": "C/C=C(/C)C(=O)O[C@H]1[C@H](OC(=O)/C(C)=C/C)C(C)(C)C[C@H]2C3=CC[C@@H]4[C@@]5(C)CC[C@H](O[C@@H]6O[C@H](C(=O)O)[C@@H](O)[C@H](O[C@@H]7O[C@@H](CO)[C@H](O)[C@H]7O)[C@H]6O[C@@H]6O[C@H](CO)[C@@H](O)[C@H](O)[C@H]6O)[C@](C)(CO)[C@@H]5CC[C@@]4(C)[C@]3(C)[C@@H](O)[C@@H](O)[C@]21CO [AESCULIOSIDE IIIE]", "TARGET SYSTEM": "HL-60", "GI50": "14 µM"}
{"MOLECULE": "C/C=C(/C)C(=O)O[C@H]1[C@H](OC(=O)C(C)CC)[C@]2(CO)[C@H](O)[C@H](O)[C@]3(C)C(=CC[C@@H]4[C@@]5(C)CC[C@H](O[C@@H]6O[C@H](C(=O)O)[C@@H](O)[C@H](O[C@@H]7O[C@@H](CO)[C@H](O)[C@H]7O)[C@H]6O[C@@H]6O[C@H](CO)[C@H](O)[C@H](O)[C@H]6O)C(C)(C)[C@@H]5CC[C@]43C)[C@@H]2CC1(C)C (stereo not given in full) [AESCULIOSIDE IVA]", "TARGET SYSTEM": "HL-60", "GI50": "7.26 µM"}
{"MOLECULE": "C/C=C(/C)C(=O)O[C@H]1[C@H](OC(=O)C(C)CC)[C@]2(CO)[C@H](O)C[C@]3(C)C(=CC[C@@H]4[C@@]5(C)CC[C@H](O[C@@H]6O[C@H](C(=O)O)[C@@H](O)[C@H](O[C@@H]7O[C@@H](CO)[C@H](O)[C@H]7O)[C@H]6O[C@@H]6O[C@H](CO)[C@H](O)[C@H](O)[C@H]6O)C(C)(C)[C@@H]5CC[C@]43C)[C@@H]2CC1(C)C (stereo not given in full) [AESCULIOSIDE IVC]", "TARGET SYSTEM": "HL-60", "GI50": "8.02 µM"}
{"MOLECULE": "C/C=C(/C)C(=O)O[C@H]1[C@H](OC(C)=O)[C@]2(CO)[C@H](O)C[C@]3(C)C(=CC[C@@H]4[C@@]5(C)CC[C@H](O[C@@H]6O[C@H](C(=O)O)[C@@H](O)[C@H](O[C@@H]7OC[C@H](O)[C@H](O)[C@H]7O)[C@H]6O[C@@H]6O[C@H](CO)[C@@H](O)[C@H](O)[C@H]6O)C(C)(C)[C@@H]5CC[C@]43C)[C@@H]2CC1(C)C [ERYNGIIOSIDE L]", "TARGET SYSTEM": "HL-60", "GI50": "8.41 µM"}
{"MOLECULE": "C/C=C(/C)C(=O)O[C@H]1[C@H](O)[C@]2(COC(C)=O)[C@H](O)C[C@]3(C)C(=CC[C@@H]4[C@@]5(C)CC[C@H](O[C@@H]6O[C@H](C(=O)O)[C@@H](O)[C@H](O[C@@H]7O[C@@H](CO)[C@H](O)[C@H]7O)[C@H]6O[C@@H]6O[C@H](CO)[C@@H](O)[C@H](O)[C@H]6O)[C@](C)(CO)[C@@H]5CC[C@]43C)[C@@H]2CC1(C)C [AESCULIOSIDE IIIA]", "TARGET SYSTEM": "HL-60", "GI50": "7.2 µM"}

----------
- TARGET SYSTEM: DNA topoisomerase 1 (Homo sapiens, UniProt P11387)
- Sequence (P11387 whole entry): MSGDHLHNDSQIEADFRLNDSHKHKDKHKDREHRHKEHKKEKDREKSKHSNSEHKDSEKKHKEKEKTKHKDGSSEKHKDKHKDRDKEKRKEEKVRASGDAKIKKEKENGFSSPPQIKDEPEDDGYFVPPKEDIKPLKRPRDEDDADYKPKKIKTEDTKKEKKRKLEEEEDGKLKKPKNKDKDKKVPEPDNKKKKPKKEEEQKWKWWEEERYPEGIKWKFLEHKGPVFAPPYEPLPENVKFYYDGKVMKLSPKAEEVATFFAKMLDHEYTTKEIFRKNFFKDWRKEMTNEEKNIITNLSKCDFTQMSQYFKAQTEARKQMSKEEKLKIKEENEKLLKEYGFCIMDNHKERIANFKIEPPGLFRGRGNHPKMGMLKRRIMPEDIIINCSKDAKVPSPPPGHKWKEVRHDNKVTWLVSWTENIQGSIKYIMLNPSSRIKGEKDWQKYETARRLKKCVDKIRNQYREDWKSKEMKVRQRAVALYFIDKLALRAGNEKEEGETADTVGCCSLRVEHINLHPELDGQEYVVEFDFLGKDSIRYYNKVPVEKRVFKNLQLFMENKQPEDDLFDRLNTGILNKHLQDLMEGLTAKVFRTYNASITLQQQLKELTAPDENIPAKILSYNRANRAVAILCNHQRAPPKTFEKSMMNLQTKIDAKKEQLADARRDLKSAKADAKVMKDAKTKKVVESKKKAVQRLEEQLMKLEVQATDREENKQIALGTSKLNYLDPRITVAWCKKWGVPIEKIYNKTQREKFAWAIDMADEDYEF
- PROTOCOL: Inhibition of human DNA topoisomerase 1-mediated relaxation of supercoiled DNA by gel electrophoresis
Measured IC50 by item

{"COMPOUND": "C/C=C(\\C)C(=O)O[C@H]1[C@H](OC(C)=O)[C@]2(CO)[C@H](O)[C@H](O)[C@]3(C)C(=CC[C@@H]4[C@@]5(C)CC[C@H](O[C@@H]6O[C@H](C(=O)O)[C@@H](O)[C@H](O[C@@H]7O[C@@H](CO)[C@H](O)[C@H]7O)[C@H]6O[C@@H]6O[C@H](CO)[C@H](O)[C@H](O)[C@H]6O)C(C)(C)[C@@H]5CC[C@]43C)[C@@H]2CC1(C)C [AESCULIOSIDE IIF]", "IC50": "> 250 µM"}
{"COMPOUND": "C/C=C(/C)C(=O)O[C@H]1[C@H](OC(=O)/C(C)=C\\C)[C@]2(CO)[C@H](O)C[C@]3(C)C(=CC[C@@H]4[C@@]5(C)CC[C@H](O)C(C)(C)[C@@H]5CC[C@]43C)[C@@H]2CC1(C)C", "IC50": "> 250 µM"}
{"COMPOUND": "C/C=C(/C)C(=O)O[C@H]1[C@H](OC(=O)C(C)C)[C@]2(CO)[C@H](O)C[C@]3(C)C(=CC[C@@H]4[C@@]5(C)CC[C@H](O)[C@](C)(CO)[C@@H]5CC[C@]43C)[C@@H]2CC1(C)C", "IC50": "> 250 µM"}
